Cited source for all entries: paper PMC5540273

Measured %Inh accompanies every entry in the list below.
Test system: DRAK1;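 note: KINOMEscan kinase panel screen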
Construct: gene STK17A
Conditions: concentration: 1 μM, replicates: in singlicate; n = 1
Experimental Endpoint: %Inh (%)

{"columns": ["Compound String", "Result Number"],
 "data": [
  ["CC(C)N1CCC(n2cnc(-c3ccc(F)cc3)c2-c2ccnc(N)n2)CC1", 7],
  ["N#Cc1ccc(Oc2ccc(Nc3ncnc4cc[nH]c34)cc2Cl)cc1", 32],
  ["CNc1nccc(-c2c(-c3ccc(F)cc3)ncn2C2CCN(C)CC2)n1", 0],
  ["CCc1nc(-c2cccc(N(C)S(=O)(=O)c3ccccc3)c2)c(-c2ccnc(Nc3ccc(N4CCN(C(C)=O)CC4)nc3)n2)s1", 3],
  ["O=C(Nc1n[nH]c2nc(-c3ccco3)c(Br)cc12)c1ccc(CN2CCCC2)cc1.O=C(O)[C@H](O)[C@@H](O)C(=O)O", 42],
  ["Cn1cc(-c2ccc3c(c2)CCN3C(=O)Cc2cccc(C(F)(F)F)c2)c2c(N)ncnc21", 3],
  ["FC(F)(F)c1cc(Nc2nccc(-c3c(-c4ccc(Cl)cc4)nn4ncccc34)n2)ccc1Cl", 0],
  ["O=C(c1ccc(-c2cc(-c3c[nH]nc3-c3ccccn3)ccn2)cc1)N1CCCC1", 0]
]}
